Biological target: FGT-1 (Caenorhabditis elegans)
Construct: gene fdgt-1; full-length fgt-1a cDNA in pSP64T, untagged, cRNA-injected Xenopus laevis oocytes
Sequence (O44827 1-492 isoform O44827-2): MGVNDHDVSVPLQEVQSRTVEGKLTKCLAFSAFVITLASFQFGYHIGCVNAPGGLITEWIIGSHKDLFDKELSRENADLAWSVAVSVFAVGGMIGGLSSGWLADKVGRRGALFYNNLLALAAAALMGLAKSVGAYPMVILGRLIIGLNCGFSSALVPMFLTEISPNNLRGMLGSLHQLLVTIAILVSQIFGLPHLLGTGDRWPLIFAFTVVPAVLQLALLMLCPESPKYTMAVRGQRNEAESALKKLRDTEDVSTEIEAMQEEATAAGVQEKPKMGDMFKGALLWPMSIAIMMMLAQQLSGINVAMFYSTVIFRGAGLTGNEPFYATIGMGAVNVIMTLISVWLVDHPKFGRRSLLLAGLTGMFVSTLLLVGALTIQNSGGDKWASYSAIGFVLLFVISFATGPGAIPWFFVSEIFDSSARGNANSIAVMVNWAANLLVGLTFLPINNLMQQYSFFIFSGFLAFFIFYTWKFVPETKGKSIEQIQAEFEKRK
Assay: inhibition of 3H-2-DG uptake in Xenopus oocytes
Format: cell-based
Details: read-out: % inhibition at 30 mM
Parameter inhibition at 30000 µM: see the listing below.
Test readout: inhibition at 30000 µM (%)

                                   compound            test_readout  unit_of_measure  value_measured
0  OC[C@H]1OC(O)[C@H](O)[C@@H](O)[C@H]1O (stereo partly drawn) [D-galactose]  inhibition at 30000 µM                %              33
1  OC[C@H]1OC(O)[C@@H](O)[C@@H](O)[C@@H]1O (stereo partly drawn) [D-mannose]  inhibition at 30000 µM                %              79
2  OC[C@H]1OC(O)[C@H](O)[C@@H](O)[C@@H]1O (stereo partly drawn) [D-glucose]  inhibition at 30000 µM                %              79
3  CO[C@H]1[C@H](O)[C@@H](CO)OC(O)[C@@H]1O (some centres unmarked) [3-O-methylglucose]  inhibition at 30000 µM                %              77
4  OCC1(O)OC[C@@H](O)[C@@H](O)[C@@H]1O (stereo partly drawn) [D-fructose]  inhibition at 30000 µM                %              42

Recorded values, source paper PMC3691140.
